Values from patent US6846801B1

Tested on: rats
Assay: Rat model: powder inhaled, blood glucose compared with insulin formulations without enhancer
Assay type: in vivo
Conditions: tested as enhancer in the method of the invention, animal (rat) model
TEST_READOUT: performance as enhancer of insulin absorption in the lung (in words)

INSERT INTO assay_data (molecule, measured_target, result) VALUES
  ('CCCCCCCCCC(=O)[O-].[Na+] [Sodium caprate]', 'rats', 'perform well'),
  ('CCCCCCCCCCCC(=O)[O-].[Na+] [Sodium laurate]', 'rats', 'perform well'),
  ('CCCCCCCCCCCCCC(=O)[O-].[Na+] [Sodium myristate]', 'rats', 'perform well');
